procedure-text: AUC (0 to t) in BALB/c nude mouse at 10 mg/kg, po by LC-MS/MS analysis
Type: ADME, organism-based
Design: dose 10 mg/kg, route po
settings: in vivo
measured-endpoint: AUC(0-t) (ng·h/mL)
Your answer should be a plain number; it is taken to be in ng·h/mL.

Ask | Name the recorded AUC(0-t) for `CCN(CC)C(=O)C[C@H]1C(=O)Nc2cc(NC(=O)c3cc(OC)c(OC)c(OC)c3Br)c(Oc3cc(C)cc(C)c3)cc2C(=O)N1C` .
Reply | 66.5

----------
System: SF-295
procedure-text: Anticancer activity against human SF-295 cells assessed as cell growth inhibition measured after 48 hrs by SRB assay
Assay type: functional
Values of GI50 strictly less than 700 nM map to MET, and values of at least 700 nM map to NOT MET.

Known results for compounds:
{"columns": ["structure-as-smiles", "assigned-class"],
 "data": [
  ["COC(=O)C[C@@H]1NC(=O)c2cc(OCc3cc(C)cc(C)c3)c(NC(=O)c3cc(OC)c(OC)c(OC)c3)cc2NC1=O", "NOT MET"],
  ["COC(=O)C[C@@H]1NC(=O)c2cc(Oc3cc(C)cc(C)c3)c(NC(=O)c3cc(OC)cc(OC)c3)cc2NC1=O", "MET"],
  ["COC(=O)C[C@@H]1NC(=O)c2cc(Oc3cc(Cl)cc(Cl)c3)c(NC(=O)c3cc(OC)c(OC)c(OC)c3)cc2NC1=O", "NOT MET"],
  ["CCN(CC)C(=O)C[C@@H]1NC(=O)c2cc(Oc3cc(C)cc(C)c3)c(N(C)C(=O)c3cc(OC)c(OC)c(OC)c3)cc2NC1=O", "NOT MET"],
  ["CCN(CC)C(=O)C[C@@H]1NC(=O)c2cc(Oc3cc(C)cc(C)c3)c(NC(=O)c3cc(OC)c(OC)c(OC)c3)cc2NC1=O", "MET"],
  ["COc1cc(C(=O)Nc2cc3c(cc2Oc2cc(C)cc(C)c2)C(=O)N[C@@H](CC(=O)N(C)C)C(=O)N3)cc(OC)c1OC", "MET"],
  ["COC(=O)C[C@@H]1NC(=O)c2cc(C#Cc3cc(C)cc(C)c3)c(NC(=O)c3cc(OC)c(OC)c(OC)c3)cc2NC1=O", "NOT MET"],
  ["CCN(CC)C(=O)C[C@H]1C(=O)Nc2cc(NC(=O)c3c(Cl)c(OC)c(OC)c(OC)c3Br)c(Oc3cc(C)cc(C)c3)cc2C(=O)N1C", "MET"]
]}

Ask | Would you kindly verify if GI50 of `COC(=O)C[C@@H]1NC(=O)c2cc(Oc3cc(C)cc(C)c3)c(NC(=O)c3ccc(F)cc3)cc2NC1=O` is strictly less than 700 nM?
Reply | NOT MET

Ask | What do we get for `COC(=O)C[C@@H]1NC(=O)c2cc(OCCN3CCOCC3)c(NC(=O)c3cc(OC)c(OC)c(OC)c3)cc2NC1=O` ?
Reply | NOT MET

Ask | Check `CCCCOC(=O)C[C@@H]1NC(=O)c2cc(Oc3cc(C)cc(C)c3)c(NC(=O)c3cc(OC)c(OC)c(OC)c3)cc2NC1=O` too.
Reply | NOT MET

Ask | Then `CCN(CC)C(=O)C[C@H]1C(=O)Nc2cc(NC(=O)c3cc(OC)c(OC)c(OC)c3Cl)c(Oc3cc(C)cc(C)c3)cc2C(=O)N1C` ?
Reply | MET

Ask | Same for `COC(=O)C[C@@H]1NC(=O)c2cc(Oc3cc(C)cc(C)c3)c(NCc3cc(OC)c(OC)c(OC)c3)cc2NC1=O`
Reply | NOT MET

Ask | What do we get for `COc1cc(C(=O)Nc2cc3c(cc2Oc2cc(C)cc(C)c2)C(=O)N[C@@H](CC(=O)N2CCN(C)CC2)C(=O)N3)cc(OC)c1OC` ?
Reply | MET

Ask | Same again, this time with `CCN(CC)C(=O)C[C@@H]1NC(=O)c2cc(Oc3cc(C)c(F)c(C)c3)c(NC(=O)c3cc(OC)c(OC)c(OC)c3Cl)cc2NC1=O`
Reply | MET

----------
GI50: recorded values
System: HCT-116
procedure-text: Anticancer activity against human HCT-116 cells assessed as cell growth inhibition measured after 48 hrs by SRB assay
Format: functional

Below, each entry is followed by its recorded GI50 result.
{"columns": ["structure-as-smiles", "GI50"],
 "data": [
  ["COC(=O)C[C@@H]1NC(=O)c2cc(C#Cc3cc(C)cc(C)c3)c(NC(=O)c3cc(OC)c(OC)c(OC)c3)cc2NC1=O", "> 50000 nM"],
  ["COC(=O)C[C@@H]1NC(=O)c2cc(Oc3cc(C)cc(C)c3)c(NC(=O)c3cc(OC)cc(OC)c3)cc2NC1=O", "200 nM"]
]}

Ask | Enter reported GI50 observed with HCT-116 for `CCN(CC)C(=O)C[C@@H]1NC(=O)c2cc(Oc3cc(C)c(Br)c(C)c3)c(NC(=O)c3cc(OC)c(OC)c(OC)c3)cc2NC1=O`
Reply | 172 nM

Ask | Try the compound `COC(=O)C[C@@H]1NC(=O)c2cc(Oc3ccc(C(F)(F)F)cc3)c(NC(=O)c3cc(OC)c(OC)c(OC)c3)cc2NC1=O`
Reply | > 50000 nM

----------
Test system: HCT-116
procedure-text: Anticancer activity against human HCT-116 cells assessed as cell growth inhibition measured after 48 hrs by SRB assay
Assay type: functional
measured-endpoint: GI50 (nM)
Number in nM, nothing else.

Some solved entries appear below for comparison.
{"columns": ["structure-as-smiles", "GI50 [nM]"],
 "data": [
  ["COC(=O)C[C@@H]1NC(=O)c2cc(Oc3ccc(C)c(C)c3)c(NC(=O)c3cc(OC)c(OC)c(OC)c3)cc2NC1=O", 2010],
  ["COC(=O)C[C@@H]1NC(=O)c2cc(Oc3ccc4c(c3)CCC4)c(NC(=O)c3cc(OC)c(OC)c(OC)c3)cc2NC1=O", 1710]
]}

Let us examine a further case.
Ask | # input compound: `CCc1nc(C[C@@H]2NC(=O)c3cc(Oc4cc(C)cc(C)c4)c(NC(=O)c4cc(OC)c(OC)c(OC)c4)cc3NC2=O)no1` ; wanted: its GI50
Reply | 330

----------
Test system: Panel NCI-60 (60 carcinoma cell lines)
procedure-text: Anticancer activity against human Panel NCI-60 (60 carcinoma cell lines) line assessed as cell growth inhibition measured after 48 hrs by SRB assay
Format: functional
measured-endpoint: GI50 (nM)
Report only the number, with the unit nM understood.

{"columns": ["structure-as-smiles", "value-unit", "test-value"],
 "data": [
  ["CCN(CC)C(=O)C[C@@H]1NC(=O)c2cc(Oc3cc(C)cc(C)c3)c(NC(=O)c3cc(OC)c(OC)c(OC)c3)cc2NC1=O", "nM", 30]
]}

Ask | What value of measured GI50 is listed for `COC(=O)C[C@@H]1NC(=O)c2cc(Oc3cc(C)ccc3C)c(NC(=O)c3cc(OC)c(OC)c(OC)c3)cc2NC1=O` ?
Reply | 1350

Ask | Try this compound next: `COC(=O)C[C@@H]1NC(=O)c2cc(Oc3cc(C)cc(F)c3)c(NC(=O)c3cc(OC)c(OC)c(OC)c3)cc2NC1=O`
Reply | 180

Ask | And `COC(=O)C[C@@H]1NC(=O)c2cc(Oc3cc(C)cc(C)c3)c(NC(=O)c3cc(OC)c(OC)c(OC)c3)cc2NC1=O` ?
Reply | 50

Ask | What about this compound? `CCN(CC)C(=O)C[C@H]1C(=O)Nc2cc(NC(=O)c3cc(OC)c(OC)c(OC)c3Cl)c(Oc3cc(C)cc(C)c3)cc2C(=O)N1C`
Reply | 17

Ask | Lookup `COC(=O)C[C@@H]1NC(=O)c2cc(Oc3ccc4c(c3)CCC4)c(NC(=O)c3cc(OC)c(OC)c(OC)c3)cc2NC1=O`
Reply | 1860

Ask | And for `COc1cc(C(=O)Nc2cc3c(cc2Oc2cc(C)cc(C)c2)C(=O)N[C@@H](CC(N)=O)C(=O)N3)cc(OC)c1OC` ?
Reply | 1120

Ask | Try this compound too: `CCN(CC)C(=O)C[C@H]1C(=O)Nc2cc(NC(=O)c3cc(OC)c(OC)c(OC)c3)c(Oc3cc(C)cc(C)c3)cc2C(=O)N1C`
Reply | 23

----------
Tested on: A549
procedure-text: Anticancer activity against human A549 cells assessed as cell growth inhibition measured after 48 hrs by SRB assay
Assay type: functional
measured-endpoint: GI50 (nM)
The response must be a number in nM with no trailing unit.

Use the examples below as a reference point.
{"columns": ["structure-as-smiles", "measured-endpoint", "test-value"],
 "data": [
  ["CCN(CC)C(=O)C[C@H]1C(=O)Nc2cc(NC(=O)c3cc(OC)c(OC)c(OC)c3Cl)c(Oc3cc(C)cc(C)c3)cc2C(=O)N1C", "GI50", 9],
  ["CCN(CC)C(=O)C[C@H]1C(=O)Nc2cc(NC(=O)c3cc(OC)c(OC)c(OC)c3Cl)c(Oc3cc(C)c(F)c(C)c3)cc2C(=O)N1C", "GI50", 21],
  ["COc1cc(C(=O)Nc2cc3c(cc2Oc2cc(C)cc(C)c2)C(=O)N[C@@H](CC(=O)N(C)C)C(=O)N3)cc(OC)c1OC", "GI50", 140],
  ["COC(=O)CC[C@@H]1NC(=O)c2cc(Oc3cc(C)cc(C)c3)c(NC(=O)c3cc(OC)c(OC)c(OC)c3)cc2NC1=O", "GI50", 1260]
]}

Ask | Item `COc1cc(C(=O)Nc2cc3c(cc2Oc2cc(C)cc(C)c2)C(=O)N[C@@H](CC(=O)N2CCN(C)CC2)C(=O)N3)cc(OC)c1OC` has what recorded GI50?
Reply | 180

Ask | Further, for `CCc1noc(C[C@@H]2NC(=O)c3cc(Oc4cc(C)cc(C)c4)c(NC(=O)c4cc(OC)c(OC)c(OC)c4)cc3NC2=O)n1` ?
Reply | 140

Ask | Repeat for the following compound: `COC(=O)C[C@@H]1NC(=O)c2cc(Oc3ccc4c(c3)CCC4)c(NC(=O)c3cc(OC)c(OC)c(OC)c3)cc2NC1=O`
Reply | 1400

Ask | One more compound: `CCCCOC(=O)C[C@@H]1NC(=O)c2cc(Oc3cc(C)cc(C)c3)c(NC(=O)c3cc(OC)c(OC)c(OC)c3)cc2NC1=O`
Reply | 1860

Ask | Please answer likewise for `CCN(CC)C(=O)C[C@H]1C(=O)Nc2cc(NC(=O)c3cc(OC)c(OC)c(OC)c3)c(Oc3cc(C)cc(C)c3)cc2C(=O)N1C`
Reply | 17

Ask | One more compound: `COC(=O)C[C@@H]1NC(=O)c2cc(Oc3cc(C)cc(C)c3)c(NC(=O)c3cc(OC)c(OC)c(OC)c3)cc2NC1=O`
Reply | 70
